# measured_target: human recombinant histamine H1 receptor (Homo sapiens, UniProt P35367)
# Construct: expressed in transfected cells; host or cells: CHO cells
# Sequence (P35367 whole entry): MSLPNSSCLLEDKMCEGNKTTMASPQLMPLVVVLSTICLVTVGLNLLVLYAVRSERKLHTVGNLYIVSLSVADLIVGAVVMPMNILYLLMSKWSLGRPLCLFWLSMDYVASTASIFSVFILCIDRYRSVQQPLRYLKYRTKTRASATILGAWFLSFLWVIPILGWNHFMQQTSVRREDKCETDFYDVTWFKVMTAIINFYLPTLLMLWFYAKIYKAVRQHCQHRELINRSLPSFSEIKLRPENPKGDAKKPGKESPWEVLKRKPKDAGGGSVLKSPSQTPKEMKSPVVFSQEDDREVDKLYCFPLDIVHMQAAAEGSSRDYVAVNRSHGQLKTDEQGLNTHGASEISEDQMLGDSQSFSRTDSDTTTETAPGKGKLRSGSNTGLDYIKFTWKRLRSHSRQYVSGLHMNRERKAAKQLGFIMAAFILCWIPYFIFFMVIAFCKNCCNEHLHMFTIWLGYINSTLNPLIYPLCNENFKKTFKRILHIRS
# assay_text: Histamine H1 radioligand binding ([3H]Pyrilamine)
# run_parameters: 0.1 μM compound; […] [3H]Pyrilamine; read-out: Histamine Binding H1, percent inhibition of specific binding
endpoint_name: inhibition at 0.1 µM (%)
Express your answer in %, writing the number without its unit.

compound: CCN1CCc2c(c3cc(C)ccc3n2CCc2ccc(C)cc2)C1 [Compound 26]
inhibition at 0.1 µM (%): 81
--
compound: Cc1ccc(CCn2c3c(c4cc(C)ccc42)CN(C)CC3)cc1 [Compound 25]
inhibition at 0.1 µM (%): 89

Request: Please report inhibition at 0.1 µM for the following compound: FC(F)(F)c1ccc2c(c1)c1c(n2CCc2noc(-c3ccccc3)n2)CCN(C2CC2)C1 [Compound 222]
Response: 101

Request: Please report inhibition at 0.1 µM for the following compound: Cc1ccc2c(c1)c1c(n2CCC2CCCCC2)CCN(C)C1 [Compound 163]
Response: 92

Request: Please report inhibition at 0.1 µM for the following compound: Cc1ccc2c(c1)c1c(n2CCc2ccccc2)CCN(C)C1 [Compound 20]
Response: 93

Request: Please report inhibition at 0.1 µM for the following compound: CCN1CCc2c(c3cc(C)ccc3n2CCc2ccncc2)C1 [Compound 27]
Response: 77

Request: Please report inhibition at 0.1 µM for the following compound: Cc1ccc2c(c1)c1c(n2CCc2ccc(F)cc2)CCN(C)C1 [Compound 33]
Response: 89

Request: Please report inhibition at 0.1 µM for the following compound: Cc1ccc2c(c1)c1c(n2CCc2ccc(Cl)cc2)CCN(C)C1 [Compound 32]
Response: 87

Request: Please report inhibition at 0.1 µM for the following compound: CCN1CCc2c(c3ccccc3n2CCc2ccccc2)C1 [Compound 4]
Response: 73

---

# measured_target: human recombinant serotonin (5-Hydroxytryptamine) 5-HT6 receptor (Homo sapiens, UniProt P50406)
# Construct: expressed in transfected cells; host or cells: human HeLa cells
# Sequence (P50406 whole entry): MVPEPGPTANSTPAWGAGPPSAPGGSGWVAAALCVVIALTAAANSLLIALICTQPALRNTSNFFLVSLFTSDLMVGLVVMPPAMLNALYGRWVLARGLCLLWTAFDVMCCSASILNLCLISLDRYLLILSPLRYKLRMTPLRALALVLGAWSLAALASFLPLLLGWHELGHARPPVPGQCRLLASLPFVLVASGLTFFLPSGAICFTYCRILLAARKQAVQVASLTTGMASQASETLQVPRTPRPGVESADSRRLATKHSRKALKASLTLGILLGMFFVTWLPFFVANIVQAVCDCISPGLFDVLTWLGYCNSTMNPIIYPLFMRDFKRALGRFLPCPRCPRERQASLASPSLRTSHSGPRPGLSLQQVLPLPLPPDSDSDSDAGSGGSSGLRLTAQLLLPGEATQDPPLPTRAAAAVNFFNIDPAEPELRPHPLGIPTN
# assay_text: Serotonin 5-HT6 radioligand binding ([3H]LSD)
# Set-up: concentration or dose not given beside the values
# run_parameters: percent inhibition of specific binding
Each entry gets Not satisfied if its Inhibition of ligand binding, Ser. 5-HT6 stays under 90%, and Satisfied if its Inhibition of ligand binding, Ser. 5-HT6 is 90% or above.

// below: answered compounds
compound: Cc1ccc2c(c1)c1c(n2CCc2cncc(C(F)(F)F)c2)CCN(C)C1 [Compound 425]
assigned_label: Not satisfied
//
compound: Cc1ccc2c(c1)c1c(n2CCc2ccc(C)[n+]([O-])c2)CCN(C)C1 [Compound 394]
assigned_label: Not satisfied
//
compound: Cc1ccc2c(c1)c1c(n2CCc2ccc(C(=O)O)nc2)CCNC1 [Compound 262]
assigned_label: Not satisfied
//
compound: CCc1ccc(CCn2c3c(c4cc(C)ccc42)CN(C)CC3)cn1 [Compound 359]
assigned_label: Satisfied
//
compound: Cc1ccc(CCn2c3c(c4ccccc42)CN(C)CC3)cc1 [Compound 1]
assigned_label: Not satisfied

Okay, next one:
Request: Tell me whether Inhibition of ligand binding, Ser. 5-HT6 is at least 90% here: CC(Cn1c2c(c3ccccc31)CN(C)CC2)c1ccc(F)cc1 (stereo not shown) [Compound 455]
Response: Satisfied

---

Each entry below carries its reported inhibition at 1 µM.
# measured_target: human recombinant histamine H1 receptor (Homo sapiens)
# Construct: expressed in transfected cells; host or cells: CHO cells
# assay_text: Histamine H1 radioligand binding ([3H]Pyrilamine)
# run_parameters: compounds screened at 1 μM; read-out: Inhibition of ligand binding, Hist. H1 (percent inhibition of specific binding)
Express your answer in %, writing the number without its unit.

structure: CN1CCc2c(c3ncccc3n2CCc2ccncc2)C1
result_units: %
inhibition at 1 µM: -2

Request: Please report inhibition at 1 µM for the following compound: CN1CCc2c(c3ccncc3n2CCc2ccncc2)C1
Response: -5

Request: Please report inhibition at 1 µM for the following compound: Cc1ccc2c(c1)c1c(n2CCc2nc(-c3ccccc3)cs2)CCN(C)C1
Response: 100

Request: Please report inhibition at 1 µM for the following compound: Cc1ccc(CCn2c3c(c4cc(I)ccc42)CN(C)CC3)cn1
Response: 105

Request: Please report inhibition at 1 µM for the following compound: Cc1ccc(CCn2c3c(c4cc(Br)ccc42)CN(C)CC3)cn1
Response: 98

---

# measured_target: human recombinant serotonin (5-Hydroxytryptamine) 5-HT6 receptor (Homo sapiens)
# Construct: expressed in transfected cells; host or cells: human HeLa cells
# assay_text: Serotonin 5-HT6 radioligand binding ([3H]LSD)
# Design: concentration or dose not given beside the values
# run_parameters: percent inhibition of specific binding
# Description: Receptor proteins were filtered and washed, the filters were then counted to determine [3H]LSD specifically bound. […] Biochemical assay results are presented as the percent inhibition of specific binding in Table 6.
Each entry below carries its reported Inhibition of ligand binding, Ser. 5-HT6.
Express your answer in %, writing the number without its unit.

# example entries with known answers
molecule: Cc1ccc2c(c1)c1c(n2CCc2cncnc2)CCN(C)C1
result_units: %
Inhibition of ligand binding, Ser. 5-HT6: 79

molecule: Cc1ccc(CCn2c3c(c4cc(C(F)(F)F)ccc42)CN(C)CC3)cc1
result_units: %
Inhibition of ligand binding, Ser. 5-HT6: 99

Request: Report value only: Inhibition of ligand binding, Ser. 5-HT6, human recombinant serotonin (5-Hydroxytryptamine) 5-HT6 receptor (Homo sapiens), CN1CCc2c(c3c(Cl)cccc3n2CCc2ccccc2)C1
Response: 86

Request: Report value only: Inhibition of ligand binding, Ser. 5-HT6, human recombinant serotonin (5-Hydroxytryptamine) 5-HT6 receptor (Homo sapiens), CN1CCc2c(c3cc(Cl)ccc3n2CC(=O)N2CCNC(=O)C2)C1
Response: 2

Request: Report value only: Inhibition of ligand binding, Ser. 5-HT6, human recombinant serotonin (5-Hydroxytryptamine) 5-HT6 receptor (Homo sapiens), Cc1cncc(CCn2c3c(c4cc(C)ccc42)CN(C)CC3)c1
Response: 79

Request: Report value only: Inhibition of ligand binding, Ser. 5-HT6, human recombinant serotonin (5-Hydroxytryptamine) 5-HT6 receptor (Homo sapiens), CCOC(=O)c1ccc(CCn2c3c(c4cc(C)ccc42)CN(C)CC3)cn1
Response: 56

Request: Report value only: Inhibition of ligand binding, Ser. 5-HT6, human recombinant serotonin (5-Hydroxytryptamine) 5-HT6 receptor (Homo sapiens), CN1CCc2c(c3cc(C(F)(F)F)ccc3n2CCc2ccccc2)C1
Response: 101

Request: Report value only: Inhibition of ligand binding, Ser. 5-HT6, human recombinant serotonin (5-Hydroxytryptamine) 5-HT6 receptor (Homo sapiens), CN1CCc2c(c3ccc(Cl)cc3n2CCC2CCCCC2)C1
Response: 67

Request: Report value only: Inhibition of ligand binding, Ser. 5-HT6, human recombinant serotonin (5-Hydroxytryptamine) 5-HT6 receptor (Homo sapiens), CC1CCN(C(=O)CCn2c3c(c4cc(Cl)ccc42)CN(C)CC3)CC1
Response: 41

Request: Report value only: Inhibition of ligand binding, Ser. 5-HT6, human recombinant serotonin (5-Hydroxytryptamine) 5-HT6 receptor (Homo sapiens), CN1CCc2c(c3cc(F)ccc3n2CCc2ccc(F)cc2)C1
Response: 105

Request: Report value only: Inhibition of ligand binding, Ser. 5-HT6, human recombinant serotonin (5-Hydroxytryptamine) 5-HT6 receptor (Homo sapiens), Cc1ccc(CCn2c3c(c4cc(Cl)c(F)cc42)CN(C)CC3)cn1
Response: 94

---

# measured_target: human recombinant histamine H2 receptor (Homo sapiens, UniProt P25021)
# Construct: expressed in transfected cells; host or cells: CHO-K1 cells
# Sequence (P25021 whole entry): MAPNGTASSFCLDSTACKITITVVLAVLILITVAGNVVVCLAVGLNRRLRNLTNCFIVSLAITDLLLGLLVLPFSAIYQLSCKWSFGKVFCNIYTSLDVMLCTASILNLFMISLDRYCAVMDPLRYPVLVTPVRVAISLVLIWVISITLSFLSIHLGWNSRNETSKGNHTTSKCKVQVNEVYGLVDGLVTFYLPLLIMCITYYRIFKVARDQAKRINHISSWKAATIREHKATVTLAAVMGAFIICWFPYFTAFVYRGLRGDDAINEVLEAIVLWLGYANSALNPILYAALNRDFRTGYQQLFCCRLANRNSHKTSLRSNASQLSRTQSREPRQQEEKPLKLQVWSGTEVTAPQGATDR
# assay_text: Histamine H2 radioligand binding ([125I]Aminopotentidine)
# run_parameters: percent inhibition of specific binding; screened at 1 μM; read-out: Inhibition of ligand binding, Hist. H2
Each entry below carries its reported inhibition at 1 µM.
Express your answer in %, writing the number without its unit.

# example entries with known answers
structure: Cc1ccc2c(c1)c1c(n2CCc2ccncc2)CCN(C)C1
inhibition at 1 µM [%]: 53

structure: CN1CCc2c(c3cc(Cl)ccc3n2CCc2ccc(Cl)cc2)C1
inhibition at 1 µM [%]: 98

structure: CN1CCc2c(c3cc(Cl)ccc3n2CCc2cccnc2)C1
inhibition at 1 µM [%]: 62

structure: COc1ccc(CCn2c3c(c4cc(C)ccc42)CN(C)CC3)cc1
inhibition at 1 µM [%]: 97

Continue with the molecule presented below.
Request: Please report inhibition at 1 µM for the following molecule: CN1CCc2c(c3cc(Cl)ccc3n2CCc2ccncc2)C1
Response: 76

---

# measured_target: human recombinant adrenergic α2A receptor (Homo sapiens)
# Construct: expressed in transfected cells; host or cells: insect Sf9 cells
# Sequence (P08913 whole entry): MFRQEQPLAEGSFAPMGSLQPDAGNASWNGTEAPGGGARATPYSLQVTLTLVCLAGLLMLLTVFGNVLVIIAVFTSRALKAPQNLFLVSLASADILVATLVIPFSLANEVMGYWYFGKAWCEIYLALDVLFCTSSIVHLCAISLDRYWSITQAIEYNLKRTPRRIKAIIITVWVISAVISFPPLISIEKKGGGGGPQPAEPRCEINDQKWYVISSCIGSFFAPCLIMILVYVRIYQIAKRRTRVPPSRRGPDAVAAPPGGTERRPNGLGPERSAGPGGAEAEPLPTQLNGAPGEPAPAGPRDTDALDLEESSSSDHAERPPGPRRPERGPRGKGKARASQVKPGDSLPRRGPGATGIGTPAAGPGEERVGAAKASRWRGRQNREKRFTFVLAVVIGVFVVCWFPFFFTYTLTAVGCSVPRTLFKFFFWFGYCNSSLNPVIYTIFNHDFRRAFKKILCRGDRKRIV
# assay_text: Adrenergic α2A radioligand binding ([3H]MK-912)
# Design: concentration or dose not given beside the values
# run_parameters: percent inhibition of specific binding
Each entry gets class 0 if its Inhibition of ligand binding, Adren. alpha2A stays under 20%, and class 1 if its Inhibition of ligand binding, Adren. alpha2A is 20% or above.

compound: Cc1ccc2c(c1)c1c(n2CC(=O)N2CCc3ccccc3C2)CCN(C)C1 [Compound 398]
measured_target: human recombinant adrenergic α2A receptor (Homo sapiens)
assigned_label: class 1
//
compound: CN1CCc2c(c3c(Cl)cccc3n2CCC2CCCCC2)C1 [Compound 187]
measured_target: human recombinant adrenergic α2A receptor (Homo sapiens)
assigned_label: class 1
//
compound: Cc1ccc(CCn2c3c(c4cc(C(F)(F)F)ccc42)CN(C)CC3)cn1 [Compound 53]
measured_target: human recombinant adrenergic α2A receptor (Homo sapiens)
assigned_label: class 0
//
compound: CCc1ccc(CCn2c3c(c4cc(C)ccc42)CN(C)CC3)cn1 [Compound 359]
measured_target: human recombinant adrenergic α2A receptor (Homo sapiens)
assigned_label: class 1
//
compound: Cc1ccc2c(c1)c1c(n2CC(=O)N2Cc3ccccc3C2)CCN(C)C1 [Compound 397]
measured_target: human recombinant adrenergic α2A receptor (Homo sapiens)
assigned_label: class 0

Request: Tell me whether Inhibition of ligand binding, Adren. alpha2A is at least 20% here: Cc1ccc2c(c1)c1c(n2CCc2ccc(C)nc2)C(Br)C(=O)N(C)C1 (stereo not shown) [Compound 232]
Response: class 0

Request: Tell me whether Inhibition of ligand binding, Adren. alpha2A is at least 20% here: Cc1ccc2c(c1)c1c(n2CC(C)c2ccc(F)cc2)CCN(C)C1 (stereo not shown) [Compound 456]
Response: class 1

Request: Tell me whether Inhibition of ligand binding, Adren. alpha2A is at least 20% here: CC1CN(C(=O)Cn2c3c(c4cc(Cl)ccc42)CN(C)CC3)CC(C)N1 (stereo not shown) [Compound 245]
Response: class 0

Request: Tell me whether Inhibition of ligand binding, Adren. alpha2A is at least 20% here: CCc1ccc2c(c1)c1c(n2CCc2cnc(C)nc2)CCN(C)C1 [Compound 362]
Response: class 0

Source: patent US9096591B2
